Kd values by entry
# TARGET_OR_TEST_SYSTEM: receptor on bovine erythrocytes having an apparent 75 kDa molecular weight (bovine (endogenous in bovine erythrocytes))
# EXPERIMENTAL_PROTOCOL: radioligand binding; saturation: 7.5 x 10^7 bovine erythrocytes, 125I-peptide 0-6000 nM without or with ~26 μM unlabelled peptide, 245 μL, 90 min at RT, HBS washes; 1:1 model, Hill plot
Ends that are not written are not given here.

- BINDER: "GYESVGSKSYRMPVGKSPVV (also: 125I radio-iodination in tracer use, site not given here) [B. bovis AMA-1 Domain I-derived peptide 42438]"
  MEASURE_UNIT: "nM"
  Kd: 1300
- BINDER: "YMQKFDIPRNHGSGIYVDLG (also: 125I radio-iodination, site not given here) [B. bovis AMA-1 Domain I-derived peptide 42437]"
  MEASURE_UNIT: "nM"
  Kd: 1100
